- system name: human mAChR M1 (Homo sapiens, UniProt P11229)
- Construct: host or cells: CHO-K1 cells (ATCC), stably transfected using Lipofectamine2000
- Sequence (P11229 whole entry): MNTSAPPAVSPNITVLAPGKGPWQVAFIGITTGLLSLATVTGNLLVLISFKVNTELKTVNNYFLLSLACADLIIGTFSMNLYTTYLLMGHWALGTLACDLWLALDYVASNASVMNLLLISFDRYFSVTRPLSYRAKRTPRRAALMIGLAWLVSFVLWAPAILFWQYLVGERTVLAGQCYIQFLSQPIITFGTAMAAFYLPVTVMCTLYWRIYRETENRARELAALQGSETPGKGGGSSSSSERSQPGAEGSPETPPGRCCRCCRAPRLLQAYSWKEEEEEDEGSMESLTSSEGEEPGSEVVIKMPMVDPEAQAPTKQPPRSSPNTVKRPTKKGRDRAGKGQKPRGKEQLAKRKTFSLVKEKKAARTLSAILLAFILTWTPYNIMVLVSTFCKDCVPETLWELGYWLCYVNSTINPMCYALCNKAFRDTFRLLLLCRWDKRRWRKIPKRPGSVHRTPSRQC
- protocol notes: mAChR M1 cell-based functional assay (calcium mobilization), PAM activity: increase in the EC20 acetylcholine response
- test context: CHO-K1 cells expressing hM1; potentiation of EC20 acetylcholine response
Please use YES whenever Emax is not below 60%, and NO whenever it is.

Prompt line: # check: Emax of `Cn1cc2c(-c3cc(F)c(Cn4cc(C(=O)N[C@H]5CCOC[C@@H]5O)c5occc5c4=O)c(F)c3)cccc2n1` is greater than or equal to 60%
Response line: YES

Prompt line: # check: Emax of `O=C(N[C@H]1CCOC[C@@H]1O)c1cn(Cc2ccc(-n3cccn3)cc2)c(=O)c2cccnc12` is greater than or equal to 60%
Response line: YES

Prompt line: # check: Emax of `Cn1ccc(-c2ccc(Cn3cc(C(=O)N[C@H]4CCCC[C@@H]4O)c4ncccc4c3=O)c(F)c2)n1` is greater than or equal to 60%
Response line: YES

Prompt line: # check: Emax of `Cn1cc2c(-c3cc(F)c(Cn4cc(C(=O)NC5CCOCC5)c5occc5c4=O)c(F)c3)cccc2n1` is greater than or equal to 60%
Response line: YES

Prompt line: # check: Emax of `Cc1cc(-c2ccc(Cn3cc(C(=O)N[C@H]4CCCC[C@@H]4O)c4ncccc4c3=O)c(F)c2)ccn1` is greater than or equal to 60%
Response line: YES

Prompt line: # check: Emax of `Cn1cc2c(-c3cc(F)c(Cn4cc(C(=O)N[C@H]5CCOC[C@@H]5O)c5nccn5c4=O)c(F)c3)cccc2n1` is greater than or equal to 60%
Response line: YES

Prompt line: # check: Emax of `Cn1nccc1-c1ccc(Cn2cc(C(=O)N[C@H]3CCCC[C@@H]3O)c3nccn3c2=O)c(F)c1` is greater than or equal to 60%
Response line: YES

Prompt line: # check: Emax of `O=C(N[C@H]1CCCC[C@@H]1O)c1cn(Cc2ccc(-n3cccn3)cc2)c(=O)c2nccnc12` is greater than or equal to 60%
Response line: NO

Prompt line: # check: Emax of `Cn1cc(-c2ccc(Cn3cc(C(=O)N[C@H]4CCCCC[C@@H]4O)c4ncncc4c3=O)c(F)c2)cn1` is greater than or equal to 60%
Response line: NO

====

- system name: human mAChR M1 (Homo sapiens, UniProt P11229)
- Construct: host or cells: CHO-K1 cells (ATCC), stably transfected using Lipofectamine2000
- protocol notes: mAChR M1 cell-based functional assay (calcium mobilization), agonist activity upon compound addition
- test context: CHO-K1 cells expressing hM1; compound alone, before acetylcholine addition
assay readout: EC50

Consider the reported EC50 for these molecules:
molecule="Cc1cn2c(=O)n(Cc3c(F)cc(-c4cccc5nn(C)cc45)cc3F)cc(C(=O)N[C@H]3CCCC[C@@H]3O)c2n1 [Compound B30]" system_name="human mAChR M1 (Homo sapiens, UniProt P11229)" assay_readout=EC50 result="> 10 µM"
molecule="Cn1cnc2c(C(=O)N[C@H]3CCCC[C@@H]3O)cn(Cc3ccc(-n4cccn4)cc3)c(=O)c21 [Compound C6]" system_name="human mAChR M1 (Homo sapiens, UniProt P11229)" assay_readout=EC50 result="> 10 µM"
molecule="Cn1ccc(-c2ccc(Cn3cc(C(=O)N[C@H]4CCCC[C@@H]4O)c4ncccc4c3=O)c(F)c2)n1 [Compound A2]" system_name="human mAChR M1 (Homo sapiens, UniProt P11229)" assay_readout=EC50 result="> 10 µM"
molecule="Cn1cc(-c2ccc(Cn3cc(C(=O)N[C@H]4CCCCC[C@@H]4O)c4ncccc4c3=O)cn2)cn1 [Compound A18]" system_name="human mAChR M1 (Homo sapiens, UniProt P11229)" assay_readout=EC50 result="> 10 µM"
molecule="Cn1ccc(-c2ccc(Cn3cc(C(=O)N[C@H]4CCCCC[C@@H]4O)c4occc4c3=O)c(F)c2)n1 [Compound D9]" system_name="human mAChR M1 (Homo sapiens, UniProt P11229)" assay_readout=EC50 result="> 10 µM"

Prompt line: State its EC50: Cc1ccc(-c2cc(F)c(Cn3cc(C(=O)N[C@H]4CCCC[C@@H]4O)c4ncccc4c3=O)c(F)c2)cn1 [Compound A35]
Response line: > 10 µM

Prompt line: State its EC50: Cn1cc(-c2ccc(Cn3cc(C(=O)NC4CC5(COC5)C4)c4occc4c3=O)c(F)c2)cn1 [Compound D17]
Response line: > 10 µM

Prompt line: State its EC50: Cn1cc(-c2ccc(Cn3cc(C(=O)N[C@H]4CCCCC[C@@H]4O)c4ncncc4c3=O)c(F)c2)cn1 [Compound A91]
Response line: > 10 µM

Prompt line: State its EC50: Cc1nc(-c2ccc(Cn3cc(C(=O)N[C@H]4CCCC[C@@H]4O)c4ncccc4c3=O)cc2)co1 [Compound A20]
Response line: > 10 µM

Prompt line: State its EC50: Cn1cc2c(-c3cc(F)c(Cn4cc(C(=O)N[C@H]5CCOC[C@@H]5O)c5ncncc5c4=O)c(F)c3)cccc2n1 [Compound A84]
Response line: > 10 µM

Prompt line: State its EC50: Cn1cc2c(-c3cc(F)c(Cn4cc(C(=O)N[C@H]5CCOC[C@@H]5O)c5ncccc5c4=O)c(F)c3)cccc2n1 [Compound A21]
Response line: 1.23 µM

Prompt line: State its EC50: Cn1ccc(-c2ccc(Cn3cc(C(=O)N[C@H]4CCOC[C@@H]4O)c4nccn4c3=O)c(F)c2)n1 [Compound B1]
Response line: 3 µM

Prompt line: State its EC50: Cn1cc2c(-c3cc(F)c(Cn4cc(C(=O)N[C@H]5CCCCC[C@@H]5O)c5ncccc5c4=O)c(F)c3)cccc2n1 [Compound A23]
Response line: > 10 µM

Prompt line: State its EC50: Cc1cnn(C)c1-c1ccc(Cn2cc(C(=O)N[C@H]3CCCC[C@@H]3O)c3nccn3c2=O)c(F)c1 [Compound B35]
Response line: > 10 µM

Prompt line: State its EC50: Cn1cc2c(-c3cc(F)c(Cn4cc(C(=O)N[C@H]5CCCC[C@@H]5O)c5nccnc5c4=O)c(F)c3)cccc2n1 [Compound A52]
Response line: 4.36 µM

Prompt line: State its EC50: CC[C@H](C)[C@@H](CO)NC(=O)c1cn(Cc2ccc(-c3cnn(C)c3)cc2F)c(=O)c2nccnc12 [Compound A83]
Response line: > 10 µM

Prompt line: State its EC50: Cn1cc(-c2ccc(Cn3cc(C(=O)N[C@@H]4CC[C@H]4O)c4occc4c3=O)c(F)c2)cn1 (stereo in doubt) [Compound D15]
Response line: > 10 µM

Prompt line: State its EC50: Cn1cc(-c2ccc(Cn3cc(C(=O)N[C@H]4CCOC[C@@H]4O)c4occc4c3=O)c(F)c2)cn1 [Compound D12]
Response line: > 10 µM

Prompt line: State its EC50: Cn1ccc(-c2ccc(Cn3cc(C(=O)N[C@H]4CCCC[C@@H]4O)c4sccc4c3=O)c(F)c2)n1 [Compound D27]
Response line: > 10 µM

Prompt line: State its EC50: Cc1cn2c(=O)n(Cc3ccc(-c4cnn(C)c4)cc3F)cc(C(=O)N[C@H]3CCCC[C@@H]3O)c2n1 [Compound B24]
Response line: > 10 µM

Prompt line: State its EC50: Cn1ccc(-c2ccc(Cn3cc(C(=O)N[C@H]4CCOC[C@@H]4O)c4sccc4c3=O)c(F)c2)n1 [Compound D26]
Response line: > 10 µM

Prompt line: State its EC50: Cn1cc2c(-c3cc(F)c(Cn4cc(C(=O)NCC(O)C(F)(F)F)c5nccnc5c4=O)c(F)c3)cccc2n1 (stereo not shown) [Compound A74]
Response line: > 10 µM

Prompt line: State its EC50: Cn1nccc1-c1ccc(Cn2cc(C(=O)N[C@H]3CCC[C@@H]3O)c3nccn3c2=O)c(F)c1 [Compound B33]
Response line: > 10 µM

Prompt line: State its EC50: Cc1cc(-c2cc(F)c(Cn3cc(C(=O)N[C@H]4CCOC[C@@H]4O)c4ncccc4c3=O)c(F)c2)ccn1 [Compound A36]
Response line: 1.77 µM

Prompt line: State its EC50: Cn1cc(-c2ccc(Cn3cc(C(=O)N[C@H]4CCCC[C@@H]4O)c4nccn4c3=O)cn2)cn1 [Compound B11]
Response line: 5 µM

Prompt line: State its EC50: Cn1cc(-c2ccc(Cn3cc(C(=O)NCC(C)(C)O)c4nccnc4c3=O)c(F)c2)cn1 [Compound A80]
Response line: > 10 µM

Prompt line: State its EC50: Cn1ccc(-c2ccc(Cn3cc(C(=O)N[C@H]4CCOC[C@@H]4O)c4occc4c3=O)c(F)c2)n1 [Compound D6]
Response line: > 10 µM

Prompt line: State its EC50: Cc1cc(-c2ccc(Cn3cc(C(=O)N[C@H]4CCCC[C@@H]4O)c4ncccc4c3=O)c(F)c2)ccn1 [Compound A27]
Response line: > 10 µM
